This collection of values is drawn from ChEMBL document CHEMBL1806446.

Target: Sodium channel protein type 2 subunit alpha (Homo sapiens) (UniProt Q99250)
Sequence (Q99250 whole entry, looked up): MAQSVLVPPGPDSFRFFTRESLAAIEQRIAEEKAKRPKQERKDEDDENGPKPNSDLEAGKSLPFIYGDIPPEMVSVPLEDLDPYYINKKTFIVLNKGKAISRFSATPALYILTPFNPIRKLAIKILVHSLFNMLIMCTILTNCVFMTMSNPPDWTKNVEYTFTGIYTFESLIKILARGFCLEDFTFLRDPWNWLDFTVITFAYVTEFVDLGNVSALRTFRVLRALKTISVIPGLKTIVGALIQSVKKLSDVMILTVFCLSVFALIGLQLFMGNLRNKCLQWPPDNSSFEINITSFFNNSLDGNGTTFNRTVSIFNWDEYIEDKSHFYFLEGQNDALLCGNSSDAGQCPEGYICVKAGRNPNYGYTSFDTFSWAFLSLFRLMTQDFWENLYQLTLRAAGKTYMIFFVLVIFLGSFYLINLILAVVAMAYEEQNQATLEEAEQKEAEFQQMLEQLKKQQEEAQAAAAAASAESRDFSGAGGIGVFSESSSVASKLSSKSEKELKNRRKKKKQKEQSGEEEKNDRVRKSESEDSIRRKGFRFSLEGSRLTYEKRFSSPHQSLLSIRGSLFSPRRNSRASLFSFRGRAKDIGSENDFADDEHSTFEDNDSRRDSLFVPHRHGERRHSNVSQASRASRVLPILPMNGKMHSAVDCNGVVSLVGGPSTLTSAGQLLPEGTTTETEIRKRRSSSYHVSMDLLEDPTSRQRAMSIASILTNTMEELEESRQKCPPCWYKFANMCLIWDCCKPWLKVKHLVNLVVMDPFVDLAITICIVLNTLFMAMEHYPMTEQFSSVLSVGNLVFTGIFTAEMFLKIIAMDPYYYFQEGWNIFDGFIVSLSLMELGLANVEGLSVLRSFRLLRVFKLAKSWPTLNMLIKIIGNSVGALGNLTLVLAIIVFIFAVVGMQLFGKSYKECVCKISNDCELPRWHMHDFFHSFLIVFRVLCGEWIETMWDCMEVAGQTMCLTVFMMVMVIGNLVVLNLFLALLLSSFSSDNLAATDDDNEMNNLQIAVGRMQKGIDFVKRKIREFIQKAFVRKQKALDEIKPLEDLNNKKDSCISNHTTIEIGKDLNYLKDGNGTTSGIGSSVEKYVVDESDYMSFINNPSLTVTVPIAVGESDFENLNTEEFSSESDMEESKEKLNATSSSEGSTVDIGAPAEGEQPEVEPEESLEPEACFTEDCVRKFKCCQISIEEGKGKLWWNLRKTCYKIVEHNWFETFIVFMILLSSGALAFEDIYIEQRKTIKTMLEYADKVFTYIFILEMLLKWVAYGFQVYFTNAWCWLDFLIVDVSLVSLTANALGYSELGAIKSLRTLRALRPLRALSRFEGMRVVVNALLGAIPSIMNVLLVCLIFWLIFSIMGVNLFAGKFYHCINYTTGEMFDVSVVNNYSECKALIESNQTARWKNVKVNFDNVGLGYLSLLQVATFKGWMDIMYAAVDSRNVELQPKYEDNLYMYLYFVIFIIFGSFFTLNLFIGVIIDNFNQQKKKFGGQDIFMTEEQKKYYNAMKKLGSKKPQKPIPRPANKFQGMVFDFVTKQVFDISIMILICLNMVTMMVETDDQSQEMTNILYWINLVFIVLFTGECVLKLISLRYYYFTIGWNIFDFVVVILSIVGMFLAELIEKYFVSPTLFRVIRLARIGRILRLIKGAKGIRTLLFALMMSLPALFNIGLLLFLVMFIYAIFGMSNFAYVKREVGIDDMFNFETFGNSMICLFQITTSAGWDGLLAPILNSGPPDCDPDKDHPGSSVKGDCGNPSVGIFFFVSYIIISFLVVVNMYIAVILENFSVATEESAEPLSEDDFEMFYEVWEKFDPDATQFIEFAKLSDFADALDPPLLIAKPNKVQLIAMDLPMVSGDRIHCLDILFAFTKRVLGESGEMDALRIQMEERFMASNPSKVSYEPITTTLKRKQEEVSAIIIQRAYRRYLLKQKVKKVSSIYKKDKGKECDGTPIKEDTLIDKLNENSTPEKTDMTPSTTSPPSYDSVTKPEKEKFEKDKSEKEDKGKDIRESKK
Experiment: Inhibition of human voltage-gated sodium channel 1.2 expressed in HEK293 cells at 100 nM by […]
Assay type: cell-based
property-label: inhibition

stdin: # returns recorded inhibition (system: Sodium channel protein type 2 subunit alpha (Homo sapiens) (UniProt Q99250)) for CCCCCCCC(C/C=C/CCC(=O)NCCc1c[nH]c2ccccc12)OC (racemic)
stdout: 24.3%

stdin: Under Sodium channel protein type 2 subunit alpha (Homo sapiens) (UniProt Q99250): inhibition value of CCCCCCCC(C/C=C/CCC(=O)NCCc1ccccc1)OC (racemic) ?
stdout: < 10%

stdin: Fill in the recorded inhibition for this compound, with Sodium channel protein type 2 subunit alpha (Homo sapiens) (UniProt Q99250) as test system: "CCCCCCC[C@@H](C/C=C/CCC(=O)NCCc1ccccc1)OC"
stdout: 15.5%

stdin: What measured inhibition is associated with "CCCCCCC[C@H](C/C=C/CCC(=O)NCCc1c[nH]c2ccccc12)OC" on Sodium channel protein type 2 subunit alpha (Homo sapiens) (UniProt Q99250)?
stdout: 28.8%

stdin: State its inhibition on Sodium channel protein type 2 subunit alpha (Homo sapiens) (UniProt Q99250): "CCCCCCC[C@@H](C/C=C/CCC(=O)NCCc1c[nH]c2ccccc12)OC"
stdout: 17.2%

Next:
stdin: What value of inhibition on Sodium channel protein type 2 subunit alpha (Homo sapiens) (UniProt Q99250) does "CCCCCCC[C@H](C/C=C/CCC(=O)NCCc1ccccc1)OC" have?
stdout: < 10%

###

Molecular target: Sodium channel protein type 2 subunit alpha (Homo sapiens) (UniProt Q99250)
Assay: Inhibition of human voltage-gated sodium channel 1.2 expressed in human HEK293 cells at 10 uM by […]
Format: cell-based
property-label: inhibition (%)
Enter your answer as a number in %; do not include the unit.

stdin: Fill blank: measured inhibition of the molecule "CCCCCCC[C@@H](C/C=C/CCC(=O)NCCc1c[nH]c2ccccc12)OC" is ____.
stdout: 100

***
stdin: Can you share its inhibition? I mean this molecule: CCCCCCCC(C/C=C/CCC(=O)NCCc1ccccc1)OC (racemic)
stdout: 90.2

stdin: Using the record for "CCCCCCC[C@@H](C/C=C/CCC(=O)NCCc1ccccc1)OC" , report its inhibition.
stdout: 94.4

stdin: Give the measured inhibition of "O=C1NC(=O)C(c2ccccc2)(c2ccccc2)N1" .
stdout: 10

stdin: GET /values?readout=inhibition&item= CCCCCCCC(C/C=C/CCC(=O)NCCc1c[nH]c2ccccc12)OC (racemic)
stdout: 100

###

Species on record: Rattus norvegicus
Assay: Displacement of [3H]batrachotoxin from neurotoxin site 2 of voltage-gated sodium channel in rat forebrain tissue at 10 uM after 60 mins
property-label: Activity (%)
Give just the number in %; leave the unit off.

Below: 2 compounds and their reported Activity.
stdin: Please look up its Activity: "CCCCCCC[C@H](C/C=C/CCC(=O)NCCc1ccccc1)OC"
stdout: 13.8

stdin: Would you mind telling me what Activity value was observed for "O=C1NC(=O)C(c2ccccc2)(c2ccccc2)N1" ?
stdout: 19.8

More entries:
stdin: Activity for CCCCCCCC(C/C=C/CCC(=O)NCCc1ccccc1)OC (racemic) ?
stdout: 15.7

stdin: Fill in: Activity of "CCCCCCC[C@@H](C/C=C/CCC(=O)NCCc1c[nH]c2ccccc12)OC" is ___
stdout: 29

stdin: Query (compound): CCCCCCCC(C/C=C/CCC(=O)O)OC (racemic) ; field requested: Activity
stdout: 7.35

stdin: So what's the measured Activity for this one? "CCCCCCC[C@@H](C/C=C/CCC(=O)NCCc1ccccc1)OC"
stdout: 15.9

stdin: // lookup Activity for "CCCCCCC[C@@H](C/C=C/CCC(=O)O)OC"
stdout: 7.77

stdin: What value of Activity has been reported for the following compound? "CCCCCCC[C@H](C/C=C/CCC(=O)NCCc1c[nH]c2ccccc12)OC"
stdout: 20.3

stdin: Tell me the measured Activity of CCCCCCCC(C/C=C/CCC(=O)NCCc1c[nH]c2ccccc12)OC (racemic) , please.
stdout: 36

stdin: Any idea what Activity was measured for "CCCCCCC[C@H](C/C=C/CCC(=O)O)OC" ?
stdout: 11.9
